These data points were gathered from paper PMC4336329.

target: human ether-à-go-go-related gene (hERG) potassium channel (human, UniProt Q12809);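 further: peak tail current of the secondary pulse compared with the same well before compound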
Sequence (Q12809 whole entry, looked up): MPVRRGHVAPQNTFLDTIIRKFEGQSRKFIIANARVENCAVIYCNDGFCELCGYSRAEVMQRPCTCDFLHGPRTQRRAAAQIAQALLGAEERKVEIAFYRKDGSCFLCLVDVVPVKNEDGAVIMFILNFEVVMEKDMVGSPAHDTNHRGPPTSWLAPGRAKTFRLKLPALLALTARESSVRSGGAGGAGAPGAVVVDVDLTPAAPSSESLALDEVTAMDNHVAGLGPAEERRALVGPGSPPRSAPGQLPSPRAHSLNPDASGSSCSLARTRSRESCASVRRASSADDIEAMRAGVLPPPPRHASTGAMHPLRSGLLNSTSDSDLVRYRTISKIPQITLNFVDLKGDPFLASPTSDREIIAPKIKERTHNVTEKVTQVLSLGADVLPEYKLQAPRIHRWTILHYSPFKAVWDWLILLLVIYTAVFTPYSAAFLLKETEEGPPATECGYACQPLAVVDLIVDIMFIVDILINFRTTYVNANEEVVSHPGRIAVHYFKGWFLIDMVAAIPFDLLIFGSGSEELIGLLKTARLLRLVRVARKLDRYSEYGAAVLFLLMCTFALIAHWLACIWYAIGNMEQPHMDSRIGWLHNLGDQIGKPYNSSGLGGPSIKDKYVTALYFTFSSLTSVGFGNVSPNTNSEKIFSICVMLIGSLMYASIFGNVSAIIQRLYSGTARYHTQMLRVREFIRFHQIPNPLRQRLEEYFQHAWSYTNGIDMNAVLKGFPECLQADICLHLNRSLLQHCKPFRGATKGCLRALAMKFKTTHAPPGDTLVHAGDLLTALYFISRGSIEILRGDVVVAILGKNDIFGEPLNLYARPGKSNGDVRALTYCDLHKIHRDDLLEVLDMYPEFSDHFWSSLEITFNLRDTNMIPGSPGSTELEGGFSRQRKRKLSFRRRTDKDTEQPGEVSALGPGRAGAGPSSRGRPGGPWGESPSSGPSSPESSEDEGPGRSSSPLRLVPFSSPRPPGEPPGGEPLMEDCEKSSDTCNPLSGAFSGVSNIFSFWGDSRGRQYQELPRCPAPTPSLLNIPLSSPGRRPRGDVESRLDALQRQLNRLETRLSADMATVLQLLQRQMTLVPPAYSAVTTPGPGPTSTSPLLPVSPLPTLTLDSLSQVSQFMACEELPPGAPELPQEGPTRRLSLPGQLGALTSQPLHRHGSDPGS
method-notes: primary screen, population patch clamp on CHO cells stably expressing hERG; higher = less effect of the substance
Protocol: Briefly, Chinese hamster ovary (CHO) cells stably expressing the hERG channel were dislodged from tissue culture flasks and dispensed into PPC plates. […] During the recording, background leak currents were estimated by a 100 ms step to -80 mV from an initial holding potential of -70 mV and subtracted from the subsequent current measurement. The campaign was conducted in two phases using slight differences in recording protocol. […]
About 14,000 (4.5%) of roughly 310,000 compounds showed an effect of 50% or more. Effects have a minus sign here. The full list was thinned out, with strong results kept by preference.
attribute-measured: hERG current change (%, negative = inhibition) at 10uM (%)
Please reply with the bare figure in % and do not write the unit itself.

Would you please look over these solved cases?
compound: CCOC(=O)[C@H]1[C@H]2COc3cc(OC)ccc3[C@@H]2N2C(=O)CN(Cc3ccccc3)C(=O)[C@@]12C
numeric-readout: -8.34
//
compound: Cc1cc(NCCO)c2ccccc2n1.Cl
numeric-readout: 6.81
//
compound: CCOC(=O)C1=NN(c2ccc(F)cc2)C2=NC(C)=C(C(=O)OC)C(c3cccs3)N12 (stereo not drawn)
numeric-readout: -2.17
//
compound: O=C(CSc1nc2c(sc3ccccc32)c(=O)n1CCCN1CCCC1)NCc1ccccc1
numeric-readout: -80.8
//
compound: COc1ccc2nc(C)cc(NCc3cccc(C(F)(F)F)c3)c2c1
numeric-readout: -31.7

So what hERG current change (%, negative = inhibition) at 10uM did CCN1CCN(c2ccc(NC(C)=O)cc2Cl)CC1 get with human ether-à-go-go-related gene (hERG) potassium channel (human, UniProt Q12809)?
-1.19

Also, COc1ccc2nc(C)cc(N/N=C/c3ccc(F)cc3)c2c1 please.
0.337

====

target: human ether-à-go-go-related gene (hERG) potassium channel (human, UniProt Q12809);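 further: peak tail current of the secondary pulse compared with the same well before compound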
method-notes: primary screen, population patch clamp on CHO cells stably expressing hERG; higher = less effect of the substance
The campaign covered roughly 310,000 compounds. About 14,000 (4.5%) showed an effect of 50% or more. The effect is printed as a negative number. The sample as a whole holds a higher share of strong results than the screen did.
attribute-measured: hERG current change (%, negative = inhibition) at 10uM (%)
Please reply with the bare figure in % and do not write the unit itself.

hERG current change (%, negative = inhibition) at 10uM lookup needed for CC(=O)c1ccc(N(C(=O)Cc2c[nH]c3ccccc23)C(C(=O)NC2CCCCC2)c2cccs2)cc1 (centres unmarked) , thanks.
7.81

Also, CC(C)Nc1nc(NC(C)(C)C)nc(Oc2ccc(=O)n(C)n2)n1 please.
-15.3

Also, O=C(CCCn1nnc2ccccc2c1=O)N[C@@H](Cc1ccccc1)C(=O)O please.
13

Also, O=C(CN1C(=O)COc2ccccc21)c1cccc(Cl)c1 please.
-14.4

Also, CC1(C)CC(N2CCCCC2)=CC(=[N+]2CCCCC2)C1.[I-] please.
8.09

Also, CCc1ccc(N(CC(=O)NC2CCCC2)S(=O)(=O)c2c(C)noc2C)cc1 please.
-7.76

Also, CN1CCN(C(=O)C(C(=O)c2ccc(F)cc2)n2ccccc2=O)CC1 (centres unmarked) please.
-1.24

Also, Cc1ccc(SCC(=O)NCCCN2CCOCC2)cc1 please.
15
